- target_or_test_system: human glucagon receptor (Homo sapiens, UniProt P47871)
- Construct: expressed in transfected cells; host or cells: BHK (baby hamster kidney) cells
- Sequence (P47871 26-477): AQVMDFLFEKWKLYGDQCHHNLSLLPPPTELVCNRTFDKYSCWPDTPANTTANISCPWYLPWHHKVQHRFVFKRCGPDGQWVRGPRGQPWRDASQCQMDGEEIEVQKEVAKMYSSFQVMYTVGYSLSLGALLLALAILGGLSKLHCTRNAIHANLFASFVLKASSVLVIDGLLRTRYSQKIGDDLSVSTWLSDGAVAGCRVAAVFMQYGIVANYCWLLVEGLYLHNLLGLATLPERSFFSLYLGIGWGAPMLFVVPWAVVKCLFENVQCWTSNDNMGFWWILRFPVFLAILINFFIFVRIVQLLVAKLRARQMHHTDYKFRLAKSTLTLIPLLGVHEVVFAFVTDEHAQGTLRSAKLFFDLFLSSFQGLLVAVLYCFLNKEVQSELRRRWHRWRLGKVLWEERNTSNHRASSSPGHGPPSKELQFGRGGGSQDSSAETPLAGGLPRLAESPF
- assay_info: Glucagon Binding Assay (III)
- recorded_conditions: BHK cell membranes, WGA SPA beads, 125I-glucagon; read-out: Glu Bd Assay (III) IC50
endpoint_label: IC50 (nM)

Consider the reported IC50 for these molecules:
molecule	IC50, nM
CCC(C)(C)C1CCC(N(Cc2ccc(C(=O)NCCC(=O)O)cc2)C(=O)Nc2ccc(OC(F)(F)F)cc2)CC1 (centres unmarked) [Example 87]	43
O=C(O)CCNC(=O)c1ccc(CN(C(=O)Oc2ccc([N+](=O)[O-])cc2)c2ccc(C3CCCCC3)cc2)cc1 [Example 413]	1200
CC(C)C1CCC(N(Cc2ccc(C(=O)NCCC(=O)O)cc2)C(=O)Nc2ccc(OC(F)(F)F)cc2)CC1 (centres unmarked) [Example 82]	59
CC1CCC(N(Cc2ccc(C(=O)NCCC(=O)O)cc2)C(=O)Nc2ccc(OC(F)(F)F)cc2)CC1 (centres unmarked) [Example 15]	826
N#Cc1ccc(NC(=O)N(Cc2ccc(C(=O)Nc3nn[nH]n3)cc2)c2ccc(C3=CCCCC3)cc2)cc1C(F)(F)F [Example 599]	12

(I) O=C(O)CCNC(=O)c1ccc(CN(C(=O)Nc2ccc(OC(F)(F)F)cc2)[C@H]2CC[C@@H](c3ccccc3)CC2)cc1 [Example 80]
(II) CC(C)(C)C1CCC(N(Cc2ccc(C(=O)NCCC(=O)O)cc2)NC(=O)c2cc(C(F)(F)F)cc(C(F)(F)F)c2)CC1 (centres unmarked) [Example 428]
(III) O=C(Nc1nn[nH]n1)c1ccc(CN(C(=O)Nc2ccccc2)c2ccc(C3CCCCC3)cc2)cc1 [Example 279]
Task: I would appreciate it if you could sort these 3 molecules by IC50, starting from the smallest number. Submit the labels in the order that the ranking request calls for.
Output: III, I, II
(III: 84 nM, I: 229 nM, II: 410 nM)

(P) O=C(O)CCNC(=O)c1ccc(CN(NC(=O)c2ccc(OC(F)(F)F)cc2)C2CCC(c3ccccc3)CC2)cc1 (centres unmarked) [Example 426]
(Q) O=C(Nc1nn[nH]n1)c1ccc(CN(C(=O)Nc2cc(Br)cc(C(F)(F)F)c2)c2ccc(C3=CCCCC3)cc2)cc1 [Example 269]
Task: Between the entries labelled P and Q , which has a larger IC50 value on record? Answer format: the label of the selected item.
Output: P

(a) O=C(O)CCNC(=O)c1ccc(CN(CC(c2ccccc2)c2ccccc2)C(=O)/C=C/c2c(Cl)cccc2Cl)cc1 [Example 505]
(b) COc1cc(OC)c(NC(=O)N(Cc2ccc(C(=O)NCCC(=O)O)cc2)C2CCC(C(C)(C)C)CC2)cc1Cl (centres unmarked) [Example 24]
Task: Compare a and b and name the one whose reported IC50 is smaller. Use the label to indicate which entry you chose.
Output: a

(1) CN(C)S(=O)(=O)c1cccc(NC(=O)N(Cc2ccc(C(=O)Nc3nn[nH]n3)cc2)c2ccc(C(C)(C)C)cc2)c1 [Example 276]
(2) CC(C)(C)C1CCC(N(Cc2ccc(C(=O)NCCC(=O)O)cc2)C(=O)Cc2ccc(OC(F)(F)F)cc2)CC1 (centres unmarked) [Example 506]
Task: Lab note: check whether 1 or 2 shows the higher recorded IC50. To answer, give the label that identifies your chosen option.
Output: 1
